Data provenance is patent USRE49735E1.

- tested_system: human mGluR5A (Homo sapiens)
- experimental_details: mGluR5 FLIPR Assay
- condition: positive modulator activity; HEK293 (ZF) cells with human mGluR5A and rat GLAST; Ca++ response to ~EC10 glutamate
pEC50: −log10 of the molar value.
quantity_kind: pEC50

                                    molecule  value_reported
 0  O=C1N[C@H](c2cncc(C#Cc3ccccc3)c2)[C@H](c2cc(Cl)ccc2Cl)O1 (single isomer, unassigned)          < 6.00
 1  O=C1N[C@H](c2cc(C#Cc3ccccc3Cl)ccn2)[C@@H](c2ccc(F)cc2)O1 (single isomer, unassigned)    6.00 to 7.00
 2  COc1cccc([C@H]2OC(=O)N[C@@H]2c2cccc(C#Cc3ccnc(C)c3)c2)c1          < 6.00
 3  COc1cccc([C@H]2OC(=O)N[C@H]2c2cccc(C#Cc3ccccc3)c2)c1 (single isomer, unassigned)          < 4.52
 4  COc1cccc([C@H]2OC(=O)N[C@@H]2c2cccc(C#Cc3cccc(OC(F)(F)F)c3)c2)c1          < 6.00
 5  O=C1N[C@H](c2cccc(C#Cc3ccccn3)n2)[C@@H](c2ccccc2)O1 (single isomer, unassigned)          < 6.00
 6  O=C1N[C@H](c2cncc(C#Cc3ccccc3)c2)[C@@H](c2ccc(F)cc2F)O1          > 7.00
 7  O=C1N[C@H](c2cccc(C#Cc3cncc(F)c3)c2)[C@@H](c2cccnc2)O1    6.00 to 7.00
 8  COc1cccc([C@H]2OC(=O)N[C@@H]2c2cccc(C#Cc3cccc(C#N)c3)c2)c1          > 7.00
 9  O=C1N[C@H](c2cc(C#Cc3ncccc3F)cnc2F)[C@@H](c2cccc(F)c2)O1          < 6.00
10  Cc1ccccc1C#Cc1cncc([C@H]2NC(=O)O[C@@H]2c2cc(F)ccc2F)c1    6.00 to 7.00
11  CNc1ncc(C#Cc2cccc([C@H]3NC(=O)O[C@@H]3c3cccc(OC)c3)c2)cn1          < 6.00
12  O=C1N[C@@H](c2cccc(C#Cc3ccccc3)c2)[C@H](c2nc(-c3ccccc3)no2)O1          < 6.00
13  COc1cccc([C@H]2OC(=O)N[C@@H]2c2cccc(C#Cc3ccccc3F)n2)c1          < 6.00

====

- tested_system: human mGluR5A (Homo sapiens, UniProt P41594)
- Sequence (P41594 21-1180 isoform P41594-2): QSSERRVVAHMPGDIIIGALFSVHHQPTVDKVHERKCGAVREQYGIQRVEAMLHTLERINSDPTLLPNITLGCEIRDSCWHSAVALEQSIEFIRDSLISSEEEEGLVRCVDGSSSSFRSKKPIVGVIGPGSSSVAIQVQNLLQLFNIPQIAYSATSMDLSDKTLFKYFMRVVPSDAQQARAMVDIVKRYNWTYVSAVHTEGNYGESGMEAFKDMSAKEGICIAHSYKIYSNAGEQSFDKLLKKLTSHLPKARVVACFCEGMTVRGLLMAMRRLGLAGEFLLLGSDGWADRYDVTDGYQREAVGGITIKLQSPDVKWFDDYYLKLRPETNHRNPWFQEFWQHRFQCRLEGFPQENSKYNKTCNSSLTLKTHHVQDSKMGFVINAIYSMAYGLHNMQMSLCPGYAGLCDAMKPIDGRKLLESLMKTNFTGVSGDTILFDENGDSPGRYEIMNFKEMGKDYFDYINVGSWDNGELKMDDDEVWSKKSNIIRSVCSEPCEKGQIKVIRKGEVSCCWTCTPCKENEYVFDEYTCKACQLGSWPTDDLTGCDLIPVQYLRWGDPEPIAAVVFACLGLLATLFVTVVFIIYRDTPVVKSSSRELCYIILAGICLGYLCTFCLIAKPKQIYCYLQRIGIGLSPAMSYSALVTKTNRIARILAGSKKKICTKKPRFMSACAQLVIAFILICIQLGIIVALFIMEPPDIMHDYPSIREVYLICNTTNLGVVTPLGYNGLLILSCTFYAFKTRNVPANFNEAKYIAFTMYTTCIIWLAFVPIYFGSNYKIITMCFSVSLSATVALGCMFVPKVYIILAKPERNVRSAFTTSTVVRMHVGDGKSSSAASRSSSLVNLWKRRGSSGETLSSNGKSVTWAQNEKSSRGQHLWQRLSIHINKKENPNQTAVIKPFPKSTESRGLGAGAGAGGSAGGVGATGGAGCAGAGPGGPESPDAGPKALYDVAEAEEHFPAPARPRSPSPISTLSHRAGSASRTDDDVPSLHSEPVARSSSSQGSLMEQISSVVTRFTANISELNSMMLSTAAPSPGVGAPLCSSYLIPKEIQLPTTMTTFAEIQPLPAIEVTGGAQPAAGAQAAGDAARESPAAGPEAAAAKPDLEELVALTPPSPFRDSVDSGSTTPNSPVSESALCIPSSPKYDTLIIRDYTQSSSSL
- experimental_details: mGluR5 FLIPR Assay
- condition: positive modulator activity; HEK293 (ZF) cells with human mGluR5A and rat GLAST; Ca++ response to ~EC10 glutamate
- Description: HEK293 (ZF) cells stably transfected with human mGluR5A (pIRES neo) and the rat glutamate-aspartate transporter (GLAST; pIRES puro) are grown in a monolayer culture at 37° C. in 5% CO2 and fed with Minimum Essential Medium (MEM) supplemented with 10% dialysed fetal bovine serum. […] Test compounds are incubated with cells in the presence of dye for 10 minutes prior to being read on the FLIPR platform (Molecular Devices). […]
Property: EC50; scope: individual compounds
quantity_kind: EC50

>>> df
                                   compound  value_reported
0  O=C1N[C@H](c2cncc(C#Cc3cc(Cl)cc(Cl)c3)c2)[C@@H](c2cc(F)ccc2F)O1 [Example 389]       > 1000 nM
1  Cc1cccc([C@@H]2OC(=O)N[C@@H]2c2cccc(C#Cc3ccccc3)c2)c1 (racemic) [Example 98]       > 1000 nM
2  COc1cccc([C@H]2OC(=O)N[C@@H]2c2cccc(C#Cc3ncccc3F)c2)c1 [Example 196]        < 100 nM
3  O=C1N[C@H](c2cncc(C#Cc3cccc(Cl)c3)c2)[C@@H](c2cccc(F)c2)O1 [Example 403]        < 100 nM
4  O=C1N[C@H](c2cncc(C#Cc3cncc(F)c3)c2)[C@@H](c2cc(F)cc(F)c2)O1 [Example 171]        < 100 nM
5  C[C@@]1(c2cccc(C#Cc3ccccc3)n2)NC(=O)O[C@H]1c1ccccc1F (single isomer, unassigned) [Example 379]       > 1000 nM
6  COc1cccc([C@@H]2OC(=O)N[C@H]2c2cccc(C#Cc3cc(F)cc(F)c3)c2)c1 [Example 124]       > 1000 nM

====

- tested_system: UniProtKB P41594
- experimental_details: mGluR5 FLIPR Assay
- condition: positive modulator activity; HEK293 (ZF) cells with human mGluR5A and rat GLAST; Ca++ response to ~EC10 glutamate
Property: EC50; scope: individual compounds
quantity_kind: EC50

In [3]: df
Out[3]:
                                    compound  quantity_kind  value_reported
 0  O=C1N[C@H](c2cncc(C#Cc3cncc(F)c3)c2)[C@@H](c2cccnc2)O1           EC50  100 to 1000 nM
 1  O=C1N[C@@H](c2cccc(C#Cc3cccc(F)c3)n2)[C@H](c2ccc(F)cc2F)O1 (single isomer, unassigned)           EC50       > 3000 nM
 2  COc1cccc([C@H]2OC(=O)N[C@@H]2c2cncc(C#Cc3ccccn3)c2)c1 (single isomer, unassigned)           EC50       > 1000 nM
 3  O=C1N[C@H](c2cccc(C#Cc3ccccc3)n2)[C@@H](c2c(F)cc(F)cc2F)O1 (single isomer, unassigned)           EC50  100 to 1000 nM
 4  COc1cccc([C@H]2OC(=O)N[C@@H]2c2cccc(C#Cc3ncc[nH]3)c2)c1           EC50       > 1000 nM
 5  O=C1N[C@H](c2cc(C#Cc3cccc(F)c3)ccn2)[C@@H](c2ccc(F)cc2)O1 (single isomer, unassigned)           EC50        < 100 nM
 6  C[C@]1(c2cncc(C#Cc3ccccc3)c2)NC(=O)O[C@H]1c1ccccc1           EC50        < 100 nM
 7  COc1cccc([C@H]2OC(=O)N[C@@H]2c2cccc(C#Cc3cnccc3Cl)c2)c1           EC50       > 1000 nM
 8  O=C1N[C@H](c2cccc(C#Cc3ccccc3F)n2)[C@@H](c2ccccc2)O1 [Example 12]           EC50       > 1000 nM
 9  COc1cccc([C@H]2OC(=O)N[C@@H]2c2cccc(C#Cc3cccc(OC)n3)c2)c1           EC50        < 100 nM
10  O=C1N[C@H](c2cc(C#Cc3ccnc(C4CC4)c3)cnc2F)[C@@H](c2ccc(F)cc2)O1           EC50       > 1000 nM
11  O=C1N[C@H](c2cccc(C#Cc3cccc(F)c3)n2)[C@@H](c2ccc(F)cc2F)O1 (single isomer, unassigned)           EC50        < 100 nM
12  C[C@@]1(c2cncc(C#Cc3ccccc3)c2)NC(=O)O[C@H]1c1ccc(F)cc1           EC50  100 to 1000 nM
13  COc1cccc([C@H]2OC(=O)N[C@@H]2c2cccc(C#Cc3cccnc3Cl)c2)c1           EC50       > 1000 nM
14  O=C1N[C@H](c2cc(C#Cc3ccccn3)cnc2F)[C@@H](c2cccc(F)c2)O1           EC50       > 1000 nM
15  O=C1N[C@H](c2cncc(C#Cc3cccc(F)c3)c2)[C@@H](c2cccc(F)c2)O1           EC50        < 100 nM
16  O=C1N[C@H](c2cncc(C#Cc3cccnc3)c2)[C@@H](c2ccc(F)cc2F)O1           EC50        < 100 nM
17  O=C1N[C@@H](c2cncc(C#Cc3cncc(F)c3)c2)[C@H](c2cccnc2)O1           EC50       > 1000 nM
18  C[C@]1(c2cncc(C#Cc3ccccc3)c2)NC(=O)O[C@@H]1c1cc(F)ccc1F (single isomer, unassigned)           EC50        < 100 nM
19  COc1cccc([C@H]2OC(=O)N[C@@H]2c2cccc(C#Cc3ccccc3F)c2)c1           EC50        < 100 nM
20  O=C1N[C@H](c2cncc(C#Cc3ccccc3)c2)[C@@H](c2ccccc2)O1 (single isomer, unassigned)           EC50       > 1000 nM
21  C[C@]1(c2cccc(F)c2)OC(=O)N[C@@H]1c1cncc(C#Cc2ccccc2)c1           EC50        < 100 nM
22  C[C@@]1(c2cccc(F)c2)OC(=O)N[C@@H]1c1cncc(C#Cc2ccccc2)c1           EC50       > 1000 nM
23  COc1cccc([C@H]2OC(=O)N[C@@H]2c2cccc(C#Cc3ncccn3)c2)c1           EC50      > 30000 nM
24  O=C1N[C@@H](c2cc(C#Cc3ccccc3)ccn2)[C@H](c2ccccc2)O1 (single isomer, unassigned)           EC50       > 1000 nM
25  O=C1N[C@@H](c2cccc(C#Cc3cccc(F)c3)n2)[C@H](c2ccccc2)O1 (single isomer, unassigned)           EC50       > 1000 nM
26  O=C1N[C@H](c2cccc(C#Cc3ccccc3)n2)[C@@H](c2ccccc2F)O1 (single isomer, unassigned)           EC50       > 1000 nM
27  O=C1N[C@@H](c2cncc(C#Cc3ccccc3)c2)[C@H](c2ccncn2)O1 (single isomer, unassigned)           EC50       > 1000 nM
28  O=C1N[C@@H](c2cccc(C#Cc3cnccn3)n2)[C@H](c2ccc(F)cc2)O1 (single isomer, unassigned)           EC50       > 1000 nM
